# Test system: LOC_OS06G22820-cb001
# Sequence (as listed by the source): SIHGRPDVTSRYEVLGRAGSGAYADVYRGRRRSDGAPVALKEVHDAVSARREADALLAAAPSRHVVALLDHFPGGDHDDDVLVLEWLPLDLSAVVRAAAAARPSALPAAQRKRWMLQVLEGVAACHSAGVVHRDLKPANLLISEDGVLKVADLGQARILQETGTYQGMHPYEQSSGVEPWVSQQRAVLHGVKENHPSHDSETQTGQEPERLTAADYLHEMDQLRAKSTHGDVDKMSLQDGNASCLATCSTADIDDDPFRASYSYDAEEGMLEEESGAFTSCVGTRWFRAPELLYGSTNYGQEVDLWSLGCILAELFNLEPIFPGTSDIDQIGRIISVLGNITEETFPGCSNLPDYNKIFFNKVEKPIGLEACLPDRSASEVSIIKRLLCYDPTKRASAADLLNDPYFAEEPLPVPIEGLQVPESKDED
# test method notes: thermal shift delta Tm vs DMSO control; higher = stronger stabilization (binding);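 further: purified Escherichia coli-expressed rice kinase domain construct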
# condition parameters: 12.5 µM; protein concentration 2 µM

compound | thermal shift delta Tm / °C
Nc1nc2cc(-c3ccc4ncc(C(=O)N5CCOCC5)n4c3)ccc2o1 [Serabelisib (INK-1117,MLN-1117,TAK-117)] | 0.5
Cc1cc(C)c(/C=C2\C(=O)Nc3ccccc32)[nH]1 [Semaxanib (SU5416)] | 0.6
CC1(C)OCCn2c1nc1c(N3CCOCC3)nc(-c3cnc(N)nc3)nc12 | 0.14
COc1cc(N2CCN(C)CC2)ccc1Nc1nccc(-c2cn(C)c3cnccc23)n1 | 0.11
CCCNC(=O)Nc1ccc(Oc2ncnc3cc(OC)c(OC)cc23)cc1Cl | 0.78
COc1cc2c(Oc3ccc(NC(=O)C4(C(=O)Nc5ccc(F)cc5)CC4)cc3F)ccnc2cc1OCCCN1CCOCC1 | 0.8
Nc1cccc(S(=O)(=O)N2CCCN(S(=O)(=O)c3ccc4c(c3)OCCO4)CC2)c1 | 0.44
O=C(c1cccc(Cl)c1F)N1CCN(Cc2cccc(Nc3nccs3)n2)CC1 | 0.57
COc1cc2ccc(=O)oc2cc1O [Scopoletin] | 0.22

====

# Test system: LOC_OS04G41100-cb001
# Sequence (as listed by the source): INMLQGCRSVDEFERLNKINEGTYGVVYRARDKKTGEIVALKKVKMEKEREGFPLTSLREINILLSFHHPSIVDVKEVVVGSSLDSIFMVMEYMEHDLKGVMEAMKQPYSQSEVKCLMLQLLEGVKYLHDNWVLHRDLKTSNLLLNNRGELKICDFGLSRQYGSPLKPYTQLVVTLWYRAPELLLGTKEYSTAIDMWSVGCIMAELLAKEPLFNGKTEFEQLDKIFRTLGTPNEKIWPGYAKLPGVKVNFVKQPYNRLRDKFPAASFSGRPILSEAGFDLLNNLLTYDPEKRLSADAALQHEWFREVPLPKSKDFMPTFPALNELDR
# test method notes: thermal shift delta Tm vs DMSO control; higher = stronger stabilization (binding)
# condition parameters: 12.5 µM; protein concentration 2 µM

molecule | thermal shift delta Tm [°C]
O=C(O)c1cc(O)c2c(c1)[C@@H]([C@H]1c3cc(C(=O)O)cc(O)c3C(=O)c3c(O[C@@H]4O[C@H](CO)[C@@H](O)[C@H](O)[C@H]4O)cccc31)c1cccc(O[C@@H]3O[C@H](CO)[C@@H](O)[C@H](O)[C@H]3O)c1C2=O [Sennoside B] | 0.24
COc1cc(N2CCN(C)CC2)ccc1Nc1ncc2c(n1)N(C)c1ccccc1C(=O)N2 | 0.17
C[C@H]1CNC(=O)c2cnn3ccc(nc23)N[C@H](C)c2cc(F)ccc2O1 | 0.09

====

# Test system: LOC_OS02G07810-cb001
# test method notes: thermal shift delta Tm vs DMSO control; higher = stronger stabilization (binding)
# condition parameters: 12.5 µM; protein concentration 2 µM
Counter-ions that a name gives are not always drawn.
Listing of entries alongside the reported thermal shift delta Tm.

compound | thermal shift delta Tm, °C
CO[C@H]1C[C@@H]2CC[C@@H](C)[C@@](O)(O2)C(=O)C(=O)N2CCCC[C@H]2C(=O)O[C@H]([C@H](C)C[C@@H]2CC[C@@H](O)[C@H](OC)C2)CC(=O)[C@H](C)/C=C(\C)[C@@H](O)[C@@H](OC)C(=O)[C@H](C)C[C@H](C)/C=C/C=C/C=C/1C [Rapamycin (Sirolimus)] | 0.45
CNC(=O)c1cc(Oc2ccc(NC(=O)Nc3ccc(Cl)c(C(F)(F)F)c3)cc2)ccn1 [Sorafenib Tosylate] | 2.2
Cc1cc(C)c(/C=C2\C(=O)Nc3ccccc32)[nH]1 [Semaxanib (SU5416)] | 1.03
CN(C)Cc1cccc(N=C(c2ccccc2)c2c(O)[nH]c3cc(C(=O)N(C)C)ccc23)c1 | 1.05
COc1cc(OC)c(/C=C/S(=O)(=O)Cc2ccc(OC)c(NCC(=O)O)c2)c(OC)c1 | 1.48
CNC(=O)Nc1ccc(-c2nc(N3CC4CCC(C3)O4)c3cnn(C4CCC5(CC4)OCCO5)c3n2)cc1 | 1.7
CS(=O)(=O)CCNCc1ccc(-c2ccc3ncnc(Nc4ccc(OCc5cccc(F)c5)c(Cl)c4)c3c2)o1 | 1.15
